biological target: p110γ (Homo sapiens (Human)); assay: PI 3-Kinase (human) HTRF assay, p110γ; format: biochemical; conditions: in vitro; read-out: PI3K γ IC50
Sequence (P48736 whole entry): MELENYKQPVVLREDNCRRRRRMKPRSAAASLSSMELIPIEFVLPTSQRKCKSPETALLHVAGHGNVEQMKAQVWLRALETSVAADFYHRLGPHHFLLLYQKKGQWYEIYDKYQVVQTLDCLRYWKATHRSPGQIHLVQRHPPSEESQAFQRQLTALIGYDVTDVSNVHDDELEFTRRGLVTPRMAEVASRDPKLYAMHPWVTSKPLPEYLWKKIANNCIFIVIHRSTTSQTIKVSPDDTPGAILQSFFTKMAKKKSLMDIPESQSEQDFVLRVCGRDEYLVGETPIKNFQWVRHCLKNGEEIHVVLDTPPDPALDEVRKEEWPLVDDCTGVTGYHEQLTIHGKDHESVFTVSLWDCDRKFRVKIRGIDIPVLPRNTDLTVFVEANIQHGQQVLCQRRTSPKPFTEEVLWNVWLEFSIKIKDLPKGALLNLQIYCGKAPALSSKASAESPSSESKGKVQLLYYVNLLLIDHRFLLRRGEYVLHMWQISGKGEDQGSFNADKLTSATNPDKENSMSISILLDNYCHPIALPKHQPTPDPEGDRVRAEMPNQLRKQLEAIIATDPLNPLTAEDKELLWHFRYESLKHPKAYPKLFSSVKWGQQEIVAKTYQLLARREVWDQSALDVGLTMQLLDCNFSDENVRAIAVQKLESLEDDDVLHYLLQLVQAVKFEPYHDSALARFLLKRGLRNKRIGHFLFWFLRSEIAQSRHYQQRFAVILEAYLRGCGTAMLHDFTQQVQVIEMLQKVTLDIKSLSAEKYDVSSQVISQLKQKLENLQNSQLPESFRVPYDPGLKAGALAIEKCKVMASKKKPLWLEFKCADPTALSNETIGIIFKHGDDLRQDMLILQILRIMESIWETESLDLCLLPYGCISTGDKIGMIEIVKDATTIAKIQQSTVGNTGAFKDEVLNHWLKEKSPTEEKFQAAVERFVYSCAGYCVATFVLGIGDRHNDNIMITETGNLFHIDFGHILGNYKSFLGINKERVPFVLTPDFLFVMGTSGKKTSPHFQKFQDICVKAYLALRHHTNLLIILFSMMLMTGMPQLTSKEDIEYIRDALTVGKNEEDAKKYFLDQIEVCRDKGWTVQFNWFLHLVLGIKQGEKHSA
pIC50: −log10 of the molar value.
metric.name: pIC50

1. CC(C)N1CCN(C2CN(c3cnc4ccc(-c5ccc6oc(N)nc6c5)cc4n3)C2)CC1 [compound 331] = > 5.00
2. CC(C)N1CCN(C(=O)C2CN(c3cnc4ccc(-c5ccc6oc(N)nc6c5)cc4n3)C2)CC1 [compound 285] = > 6.00
3. CN1CCC(NC(=O)c2cnc3ccc(-c4ccc5oc(N)nc5c4)nn23)CC1 [compound 203] = > 7.00
4. Cc1cc(-c2ccc3ncc(N4CC(N5CCOCC5)C4)nc3c2)cc2nc(N)oc12 [compound 365] = > 5.00
5. Nc1nc2cc(-c3ccc4ncc(C(=O)N5CC[C@H](O)C5)n4c3)ccc2o1 [compound 264] = > 6.00
6. CCN(CC)C1CN(c2cnc3ccc(-c4ccc5oc(N)nc5c4)cc3n2)C1 [compound 324] = > 6.00
7. CC(=O)Nc1cn2cc(-c3ccc4oc(N)nc4c3)ccc2n1 [compound 234] = > 7.00
8. CC(=O)Nc1nc2cc(-c3ccc4nc(N)oc4c3)ccc2s1 [compound 251] = > 7.00
9. CS(=O)(=O)N1CCN(C2CCN(c3cnc4ccc(-c5ccc6oc(N)nc6c5)cc4n3)CC2)CC1 [compound 377] = > 6.00
10. Nc1nc2cc(-c3ccc4ncc(N5CCN(C(=O)C6(N)CCC6)CC5)nc4c3)ccc2o1 [compound 286] = > 7.00
11. C[C@H](N)C(=O)N1CCN(c2cnc3ccc(-c4ccc5oc(N)nc5c4)cc3n2)CC1 [compound 207] = > 7.00
